system: FGFR2K WT^0Y (FGFR2 kinase domain) (Homo sapiens, UniProt P21802, C491A/Y466F/Y586L/Y588P/Y656F/Y657F)
Sequence (P21802 458-768 Y466F/C491A/Y586L/Y588P/Y656F/Y657F): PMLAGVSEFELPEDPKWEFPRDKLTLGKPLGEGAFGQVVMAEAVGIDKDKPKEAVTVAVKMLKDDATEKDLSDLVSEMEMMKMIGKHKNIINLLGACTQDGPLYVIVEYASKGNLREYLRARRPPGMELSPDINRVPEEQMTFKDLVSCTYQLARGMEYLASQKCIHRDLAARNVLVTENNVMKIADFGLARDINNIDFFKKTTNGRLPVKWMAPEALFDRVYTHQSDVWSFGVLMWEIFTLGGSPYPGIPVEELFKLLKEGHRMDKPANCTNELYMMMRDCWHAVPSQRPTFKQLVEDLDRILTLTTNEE
experiment: NMR titration, 1H/[…] methyl HMQC chemical shift perturbation
pKd: −log10 of the molar value.
quantity kind: pKd

INSERT INTO results (molecule, measured_result) VALUES
  ('Nc1ncnc2c1ncn2[C@@H]1O[C@H](COP(=O)(O)OP(=O)(O)OP(=O)(O)O)[C@@H](O)[C@H]1O [ATP]', 3.35);

---

system: FGFR2K V564I^0Y (FGFR2 kinase domain) (Homo sapiens, UniProt P21802, C491A/V564I/Y466F/Y586L/Y588P/Y656F/Y657F)
Sequence (P21802 458-768 Y466F/C491A/V564I/Y586L/Y588P/Y656F/Y657F): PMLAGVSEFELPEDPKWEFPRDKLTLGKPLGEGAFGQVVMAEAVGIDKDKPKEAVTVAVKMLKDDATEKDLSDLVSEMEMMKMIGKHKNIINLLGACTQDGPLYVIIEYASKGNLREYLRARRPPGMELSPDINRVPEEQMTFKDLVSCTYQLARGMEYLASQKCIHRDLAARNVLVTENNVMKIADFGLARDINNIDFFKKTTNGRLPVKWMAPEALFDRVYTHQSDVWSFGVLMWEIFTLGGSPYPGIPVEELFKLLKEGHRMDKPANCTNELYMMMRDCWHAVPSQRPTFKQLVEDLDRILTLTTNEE
experiment: NMR titration, 1H/[…] methyl HMQC chemical shift perturbation
quantity kind: Kd (µM)

INSERT INTO results (smiles_data, readout_unit, measured_result) VALUES
  ('Nc1ncnc2c1ncn2[C@@H]1O[C@H](COP(=O)(O)OP(=O)(O)OP(=O)(O)O)[C@@H](O)[C@H]1O', 'µM', 280);

---

system: FGFR2K (FGFR2 kinase domain) (Homo sapiens, UniProt P21802, C491A)
Sequence (P21802 458-768 C491A): as the sequence (P21802 458-768 Y466F/C491A/V564I/Y586L/Y588P/Y656F/Y657F) above, with F9Y, I107V, L129Y, P131Y, F199Y, F200Y counted along it
experiment: NMR titration, 1H/[…] HMQC chemical shift perturbation
quantity kind: Kd

INSERT INTO measurements (compound, system, measured_result) VALUES
  ('Nc1ncnc2c1ncn2[C@@H]1O[C@H](COP(=O)(O)OP(=O)(O)CP(=O)(O)O)[C@@H](O)[C@H]1O [AMP-PCP]', 'FGFR2K (FGFR2 kinase domain) (Homo sapiens, UniProt P21802, C491A)', '2.9 mM');

Hey, just so you know, these numbers are from paper PMC9974468.
